tgt: Dihydrofolate reductase (Pneumocystis carinii, UniProt P16184)
pIC50: −log10 of the molar value.
Kindly return rule met if reported pIC50 is no lower than 8; return rule not met if it is lower.

A selection of reference data follows.
• CCN(Cc1ccccc1)c1ccc2nc(N)nc(N)c2c1 = rule not met
• CCN(Cc1cccc2ccccc12)c1ccc2nc(N)nc(N)c2c1 = rule met

Query string: Is pIC50 at least 8? Consider CCCN(Cc1cc(OC)ccc1OC)c1ccc2nc(N)nc(N)c2c1
Result string: rule not met

###

tgt: Dihydrofolate reductase (Mycobacterium avium, UniProt O30463)
Sequence (O30463 whole entry): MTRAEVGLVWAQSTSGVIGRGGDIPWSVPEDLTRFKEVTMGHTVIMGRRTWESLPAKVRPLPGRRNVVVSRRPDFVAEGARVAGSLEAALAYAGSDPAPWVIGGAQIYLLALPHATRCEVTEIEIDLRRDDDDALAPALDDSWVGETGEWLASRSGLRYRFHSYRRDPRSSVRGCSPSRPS
Lab note: cut-off is 3 nM. Strictly less in IC50 is TRUE. Exactly 3 nM or more is FALSE.

• CCN(Cc1cc(OC)ccc1OC)c1ccc2nc(N)nc(N)c2c1 = TRUE
• CCN(Cc1cccc2ccccc12)c1ccc2nc(N)nc(N)c2c1 = TRUE
• CCN(Cc1ccc2ccccc2c1)c1ccc2nc(N)nc(N)c2c1 = TRUE
• CCCN(Cc1cc(OC)ccc1OC)c1ccc2nc(N)nc(N)c2c1 = FALSE

Query string: Does the reported IC50 of the following compound sit strictly below 3 nM? CCN(Cc1cc(Cl)cc(Cl)c1Cl)c1ccc2nc(N)nc(N)c2c1
Result string: FALSE

###

The reader will find reported IC50 values listed item by item below.
tgt: UniProt P16184
Sequence (P16184 whole entry): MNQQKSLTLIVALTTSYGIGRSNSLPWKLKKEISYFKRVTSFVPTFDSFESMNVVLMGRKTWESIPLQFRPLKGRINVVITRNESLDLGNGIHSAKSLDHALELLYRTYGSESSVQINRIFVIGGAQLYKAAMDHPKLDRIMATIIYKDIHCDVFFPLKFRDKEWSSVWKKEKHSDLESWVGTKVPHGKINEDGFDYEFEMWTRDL
The answer is to be given in nM; state only the numeric part.

Query string: Can you look up the measured IC50 of CCN(Cc1ccc2ccccc2c1)c1ccc2nc(N)nc(N)c2c1 for me?
Result string: 7.2

Query string: Can you look up the measured IC50 of CCN(Cc1cc(OC)ccc1OC)c1ccc2nc(N)nc(N)c2c1 for me?
Result string: 9.9

Query string: Can you look up the measured IC50 of CCN(Cc1cc(Cl)cc(Cl)c1Cl)c1ccc2nc(N)nc(N)c2c1 for me?
Result string: 6.9
